# ASSAY SYSTEM: T1, Recombinant hIL-36R protein (Acrobio, Cat #IL2-H52H6) (human, UniProt Q9HB29 20-335)
# T1 construct: Bought soluble protein; also called recombinant human IL-36R protein
# T1 sequence: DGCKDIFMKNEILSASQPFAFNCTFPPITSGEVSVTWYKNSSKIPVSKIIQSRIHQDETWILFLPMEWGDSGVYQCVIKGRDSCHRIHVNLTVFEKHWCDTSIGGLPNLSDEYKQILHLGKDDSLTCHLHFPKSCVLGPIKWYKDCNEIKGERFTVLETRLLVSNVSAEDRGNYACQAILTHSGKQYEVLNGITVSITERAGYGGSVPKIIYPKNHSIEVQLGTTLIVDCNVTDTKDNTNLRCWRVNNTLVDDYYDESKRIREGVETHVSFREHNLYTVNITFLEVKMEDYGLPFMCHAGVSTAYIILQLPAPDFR
# METHOD DESCRIPTION: BLI (Gator), antibody on Protein A sensor, hIL-36R analyte; stands under the head kon(1/s), read as koff from KD = koff/kon
PROPERTY LABEL: koff (s⁻¹)
Note: unit s⁻¹ is implicit; provide only the numeric part.

Q. Query koff for 1J3 (antibody, V domains shown, Mouse variable regions, recombinantly expressed) VH: QVQLEQSGGDLVKPGGSLKLSCAASGFTFSSYGMSWVRQTPDKRLEWVATISSYGSYTSYPDTVKGRFTISRDNAKNTLYLQMSSLKSEDTAMYYCARPDYYVSTGFDYWGQGTTLTVSS VL: DIVITQSTATLSVTPGDRVSLSCRASQSISDYLHWYQQKSHESPRLLIKYASQSISGIPSRFSGSGSGSDFTLSINSVEPEDVGVYYCQNGHSFPFTFGSGTKLEIK
A. 4.37e-05

Q. Query koff for 1C11 (antibody, V domains shown, Mouse variable regions, recombinantly expressed) VH: EVQVQQSGTELVKPGASVKLSCKASGYTFTNYWLHWVKQRPGQGLEWIGNINPSNGGTNYNEKFKTKATLTVDKSSSTAYMQLSSLTSEDSAVYYCARYSTGFAYWGQGTLVTVSA VL: DIVLTQTTASLAVSLGQRATISCRASESVDTYGASFMHWYQQKPGQPPKLLIYRASNLESGIPARFSGSGSRTDFTLTVNPVEADDVATYYCQQSNEDPRTFGGGTKLEIK
A. 0.000872

Q. Query koff for 9H11 (antibody, V domains shown, Mouse variable regions, recombinantly expressed) VH: QVQLQQSGPELVKPGASVKISCKASGYAFSHSWMNWVKQRPGKGLEWIGWIHLGDGDTYYNGKFKGKATLTADKSSSTAYMQLSSLTSEDSAVYFCARSDGNYVPYAMDYWGQGTSVTVSS VL: DIVITQTTSSLSASLGDRVTISCRASQDISNYLSWYQQKPDGTVKLLIYYTSRLHSGVPSRFSGSGSGTDYSLTISSLEQEDIATYFCQQDSEHPWTFGGGTELDVR
A. 5.79e-07

Q. Query koff for 9C12 (antibody, V domains shown, Mouse variable regions, recombinantly expressed) VH: EVQLQQSGPELVKPGASVKMSCKASGYTFTDYHMNWVKRSPGKSLEWIGRINPDYGDARYDQKFKGKATLTVDKSLSTAYMQLNRLTYEDSAVYYCARDGYYVFDYWGQGSTLTVSS VL: DIVMTQAAFSNPVSLGTSASISCRSSKSLLHSDGITYLSWYLQRPGQSPQLLIYRMSNLVSGVPDRFSGSGSGTDFTLRISRVEAEDVGVYYCAQTLEFPLTFGAGTKLELK
A. 0.000795

Q. Query koff for 1A21 (antibody, V domains shown, Mouse variable regions, recombinantly expressed) VH: EVQLQQSGPELVKPGDSVKISCKASGYSFTGYFMNWVMQSHGKSLEWIGRINPYNGDTFYNQKFKGKATLTVDKSSSTAHMELRSLTSEDSAVYYCAGLGHWYFDVWGTGTTVTVSS VL: DIVMTQSTLSLPVSLGDQASISCRSSQSIVHSNGNTYLEWYLQKPGQSPKLLIYKVSNRFSGVPDRFSGSGSGTDFTLKISRVEAEDLGVYYCFQGSHVPWTFGGGTKLEIK
A. 4.01e-05

Q. Query koff for 10F6 (antibody, V domains shown, Mouse variable regions, recombinantly expressed) VH: QVQLQQSGAELVKPGASVRLSCKASGYTFTEFTIHWVKQRSGQGLEWIGWFYPGSDFIKYNEKFKDKATLTADKSSNTVYMELLRLTSEDSAVYFCARHEDRLSDYSYEWYFDVWGAGTAVTVSS VL: DIQMTQSPASLSASVGETVTITCRASENIDSYLAWYQQKQGKSPQLLVYGATLLADGVPSRFSGSGSGTQYSLKINSLQSEDVAEYFCQHYYSIPLTFGAGTKLELK
A. 0.000137

These entries and their values trace back to patent US20250002593A1.
